Target: mouse PDGF-β receptor tyrosine kinase (Mus musculus, UniProt P05622)
Construct: amplify a fragment of DNA that codes for the intracellular tyrosine kinase domain; made in house; host or cells: SF9 insect cells, baculovirus (cell lysate used)
Sequence (P05622 599-961 limits assumed): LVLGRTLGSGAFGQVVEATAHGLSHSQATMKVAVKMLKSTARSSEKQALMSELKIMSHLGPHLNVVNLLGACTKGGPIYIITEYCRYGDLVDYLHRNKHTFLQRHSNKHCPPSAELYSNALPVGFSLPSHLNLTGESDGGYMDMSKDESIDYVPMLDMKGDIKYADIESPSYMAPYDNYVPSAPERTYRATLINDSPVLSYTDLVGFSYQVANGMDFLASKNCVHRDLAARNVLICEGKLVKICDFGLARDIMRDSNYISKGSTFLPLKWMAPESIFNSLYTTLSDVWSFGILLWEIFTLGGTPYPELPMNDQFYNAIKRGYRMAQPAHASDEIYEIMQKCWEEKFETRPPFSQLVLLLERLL
Assay: PDGF receptor tyrosine kinase assay (PDGFr-TK)
Format: biochemical
Settings: 10 min at 25° C., glutamate-tyrosine co-polymer substrate; read-out: PDGFr-TK inhibition, IC50
pIC50: −log10 of the molar value.

| Molecule | pIC50 |
| --- | --- |
| CC[N+]([O-])(CC)CCOc1ccc(Nc2ncc3cc(-c4c(Cl)cccc4Cl)c(=O)n(C)c3n2)cc1 [Example 43] | 7.15 |
